These data points were gathered from PubChem BioAssay (NCI).

- Test system: A549 NSCLC
- ASSAY DETAILS: NCI tumour cell line growth inhibition, 48 h
MEASURED ENDPOINT: TGI

Query: Value lookup for TGI; key = CCC(C)[C@@H](NCc1ccccc1)[C@H](OCc1ccccc1)[C@@H]1COC(C)(C)O1 (some centres undefined)
Result: 78.8 µM

Query: Value lookup for TGI; key = Nc1nc(Cl)cc(NCC2(O)CC(CO)C2)n1 (centres undefined)
Result: > 100 µM

Query: Value lookup for TGI; key = COc1cc(/C=C2/SC(c3ccccc3)N(c3ccc(NC(C)=O)cc3)C2=O)cc(OC)c1OC (centres undefined)
Result: > 100 µM

Query: Value lookup for TGI; key = COc1cc(-c2nn3c(/C=C4/C(=O)Nc5ccccc54)c(-c4ccc(C)cc4)nc3s2)cc(OC)c1OC
Result: > 100 µM

* * *

- System: KM12 colon
- ASSAY DETAILS: NCI tumour cell line growth inhibition, 48 h
MEASURED ENDPOINT: GI50

Query: Value lookup for GI50; key = CCCN(CCC)CCCNCc1cc(I)cc(C)c1O
Result: 15 µM

Query: Value lookup for GI50; key = Cc1cc(C)nc(NC(N)=NCCc2ccccc2)n1
Result: 3.62 µM

Query: Value lookup for GI50; key = C=C(CNC(=O)Nc1ccc(-c2ccccc2)cc1)c1ccc(C(=O)Nc2ccccc2N)cc1
Result: 10.8 µM

Query: Value lookup for GI50; key = CC1[C@@H]2[C@@H](C=C3C4CCC5Cc6nc7c(nc6C[C@@]5(C)C4C[C@H](O)[C@]32CO)CC2CCC3C4=C[C@H]5O[C@@]6(O[C@@](C)(CO)C[C@@H]6O)C(C)[C@@]5(O)[C@]4(C)[C@@H](O)CC3[C@]2(C)C7)O[C@]12CCC(C)(C)O2 (some centres undefined)
Result: 0.17 µM

* * *

- System: HCT-116 colon
- ASSAY DETAILS: NCI tumour cell line growth inhibition, 48 h; in the data active = GI50 below about 0.43 µM; inactive = the rest
Mark one answer only. Choices: active, inactive

O=P([O-])(O)OP(=O)([O-])O.[NH-][C@H]1CCCC[C@@H]1[NH-].[OH-].[OH-].[Pt+4]
inactive
c1ccc(CNC2CC(NCc3ccccn3)CC(NCc3ccccn3)C2)nc1 (stereo not drawn)
inactive

Query: Assay outcome for Cc1ccc(C(=O)N(CCCN)[C@@H](c2nc3cc(Cl)ccc3c(=O)n2Cc2ccccc2)C(C)C)cc1 : what was it?
Result: active

Query: Assay outcome for COc1cc(/C(Cl)=C/C=C/C(=O)c2c(C)[n+]([O-])c3ccc(Cl)cc3[n+]2[O-])cc(OC)c1OC : what was it?
Result: inactive

Query: Assay outcome for CN(C)CCCOc1ccccc1NC1=C(Cl)C(=O)C(Nc2ccccc2OCCCN(C)C)=C(Cl)C1=O : what was it?
Result: active

Query: Assay outcome for FC(F)(F)c1ccc(-c2nc(-c3nc4cc(Cl)c(Cl)cc4[nH]3)c3ccccn23)cc1 : what was it?
Result: inactive

Query: Assay outcome for Cc1cc(C)nc(NC(N)=NCCc2ccccc2)n1 : what was it?
Result: inactive

* * *

- Tested on: SK-MEL-28 melanoma
- ASSAY DETAILS: NCI tumour cell line growth inhibition, 48 h
TGI values by entry

Solved cases (3 shown):
CNC(=O)c1ccccc1-[s+]1c2ccccc2c(=O)n1C (stereo unspecified)
> 100 µM
C/C=C/[C@@]1(OC(=O)c2ccccc2)C[C@@H]2CCCC[C@@H]21
32.9 µM
CN(C)c1nc2sc3c(c2c(=O)o1)CCCC3
> 100 µM

Query: Value lookup for TGI; key = O=[N+]([O-])c1ccc(Nc2ccccc2-c2ccccc2)c2nonc12
Result: 45.3 µM

Query: Value lookup for TGI; key = CCSc1nnc2c(-c3ccccc3)n[nH]c2n1
Result: > 100 µM

Query: Value lookup for TGI; key = Cc1ccc(C)n1-c1ccccc1C1SCCCS1
Result: > 100 µM

* * *

- Test system: HT29 colon
- ASSAY DETAILS: NCI tumour cell line growth inhibition, 48 h
TGI values by entry
Write it as a number; the unit µM goes unstated.

Solved cases (3 shown):
C=C1C(=O)OC2/C=C(\C)C(OC(C)=O)C3OC3C(C)(O)CC(OC(=O)/C(C)=C/C)C12 (stereo unspecified)
32.7
c1ccc(C2=NC3(CCCCC3)N(c3nc4ccccc4s3)N2)nc1
58
O=C(/C=C/c1ccc(B(O)O)cc1)/C=C/c1ccc(B(O)O)cc1
3.95

Query: Value lookup for TGI; key = COc1cccc(C2CC(c3cc(OC)c(OC)c(OC)c3)=NN2)c1 (stereo unspecified)
Result: 27.2

Query: Value lookup for TGI; key = CC/C(Cc1ccccc1)=C(\c1ccc(OCCN2CCCCCC2)cc1)c1ccc(OC(=O)NCc2ccccc2)cc1
Result: 3.53

Query: Value lookup for TGI; key = CN(C)c1ccc2c(c1)C(=O)N(OS(=O)(=O)c1ccc([N+](=O)[O-])cc1)C2=O
Result: 47.6

Query: Value lookup for TGI; key = CC1=C([Se]CC(OC(=O)[C@@H](CSSC(C)(C)C)NC(=O)OC(C)(C)C)C(=O)NC(C)(C)C)C(=O)c2ccccc2C1=O (stereo partly specified)
Result: 6.3

Query: Value lookup for TGI; key = C[n+]1c(/C=C\C=C\N2CCCCC2)sc2ccccc21
Result: 11.7

Query: Value lookup for TGI; key = CC1=CC2CC(C)=C(CC[C@]3(C)CC[C@H]([C@@H](C)C(=O)O)OO3)C(C)(C)C2CC1 (stereo partly specified)
Result: 0.429

* * *

- System: SNB-75 CNS
- ASSAY DETAILS: NCI tumour cell line growth inhibition, 48 h
Please note: fulfilled applies when TGI is 30 µM or greater, and not fulfilled applies otherwise.

Solved entries (count: 5):
CCOc1ccccc1NC(=O)CCC(=O)OC
fulfilled
O=C(O)[C@H]1[C@@H](C2CCCCC2)O[C@@H](C2CCCCC2)O[C@H]1C(F)(F)F
fulfilled
C=C1C(=O)O[C@H]2[C@H]1CC/C(CNC(=O)/C=C/c1ccc(Br)cc1)=C\CC[C@@]1(C)O[C@@H]21
not fulfilled
CO[C@H](C(=O)[C@@H](O)[C@@H](C)O)[C@@H]1Cc2cc3cc(O[C@H]4C[C@@H](O[C@H]5C[C@@H](O)[C@H](O)C(C)O5)[C@H](O)C(C)O4)c(C)c(O)c3c(O)c2C(=O)[C@H]1O[C@H]1C[C@@H](O[C@H]2C[C@@H](O[C@H]3C[C@@H](OC)[C@H](O)C(C)O3)[C@@H](O)C(C)O2)C(O)(O)C(C)O1 (stereo partly drawn)
not fulfilled
C=C(CNC(=O)Nc1ccc(-c2ccccc2)cc1)c1ccc(C(=O)Nc2ccccc2N)cc1
fulfilled

Query: Entry C=C(Cn1c(=O)c2ccccc2c2ccccc21)c1ccc(C(=O)Nc2ccccc2N)cc1 : is its TGI no less than 30 µM?
Result: fulfilled

Query: Entry CC[n+]1cnc(N)c2c(-c3ccc(Cl)cc3)cn(-c3ccc(C)cc3)c21 : is its TGI no less than 30 µM?
Result: not fulfilled

* * *

- Tested on: T-47D breast
- ASSAY DETAILS: NCI tumour cell line growth inhibition, 48 h
TGI values by entry

Solved cases (2 shown):
Nc1nc2c(=O)c3ccccc3sc2s1
> 100 µM
COc1cc2c(/C=N\N=C(N)N)c(Cl)[nH]c2cc1C
9.12 µM

Consider the record given below.
Query: Value lookup for TGI; key = C(=Nc1ccccc1)C1CCCC[N-]1.C(=Nc1ccccc1)C1CCCC[N-]1.[Cu+2].[O-][Cl+3]([O-])([O-])O (stereo not drawn)
Result: > 100 µM

* * *

- Tested on: SR leukemia
- ASSAY DETAILS: NCI tumour cell line growth inhibition, 48 h
TGI values by entry

Solved cases (6 shown):
COc1c2c(c3c(c1C1OC(C)[C@@H](C)O1)CC(C)(C)O3)C(=O)c1ccccc1C2=O (some centres undefined)
68.2 µM
Cc1ccc(S(=O)(=O)N/N=C/c2oc(-c3cccc([N+](=O)[O-])c3)c(-c3cccc([N+](=O)[O-])c3)c2[N+](=O)[O-])cc1
45.8 µM
CC1(C)O[C@H]2Cn3c(c(C#N)c4ccccc43)[C@H]2O1
> 100 µM
COC(=O)N1CC2(CO)C3CC=C(C(=O)Nc4ccccc4Br)C2C1C3Br (centres undefined)
> 50 µM
C1OCC2S[C@@H]3COCO[C@@H]3C2O1 (some centres undefined)
> 100 µM
C#CCC[C@@H]1O[C@@]1(C)CC/C=C(\C)CC/C=C/C=O
> 100 µM

Query: Value lookup for TGI; key = Cc1ccc(NCCCN2CCN(CCCNc3ccc(C)c4sc5ccccc5c(=O)c34)CC2)c2c(=O)c3ccccc3sc12
Result: > 100 µM

Query: Value lookup for TGI; key = COc1ccc(-c2[nH]ncc2-c2cc3c(c(OC)c2)OCC(=O)N3)cc1
Result: > 47.7 µM

Query: Value lookup for TGI; key = COc1cccc(C2CC(c3cc(OC)c(OC)c(OC)c3)=NN2)c1 (centres undefined)
Result: 14.1 µM
